B1: glmS ribozyme (parent)
chain: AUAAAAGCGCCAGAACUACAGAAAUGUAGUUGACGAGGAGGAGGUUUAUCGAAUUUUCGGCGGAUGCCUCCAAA

# Variants of: B1
# measurementProtocol: self-cleavage kobs at 2500 uM GlcN6P; higher = faster cleavage; RNA array
# conditionContext: with glucosamine-6-phosphate
This sample holds only a part of the variants without activity.
readoutType: self-cleavage kobs at 2500 uM GlcN6P

query: Query: self-cleavage kobs at 2500 uM GlcN6P; subject: G7A G51U
result: < 1e-05 s⁻¹

query: Query: self-cleavage kobs at 2500 uM GlcN6P; subject: G32A G43U C67U
result: < 1e-05 s⁻¹

query: Query: self-cleavage kobs at 2500 uM GlcN6P; subject: A6G C34A C50U U69A
result: < 1e-05 s⁻¹

query: Query: self-cleavage kobs at 2500 uM GlcN6P; subject: A39U C67A
result: 0.00477 s⁻¹

query: Query: self-cleavage kobs at 2500 uM GlcN6P; subject: C10U A33C A36U U54A
result: < 1e-05 s⁻¹

query: Query: self-cleavage kobs at 2500 uM GlcN6P; subject: G60C C68G C70U
result: < 1e-05 s⁻¹

query: Query: self-cleavage kobs at 2500 uM GlcN6P; subject: C50A U65G U69G C70A
result: 8e-05 s⁻¹

query: Query: self-cleavage kobs at 2500 uM GlcN6P; subject: A6G A33U
result: < 1e-05 s⁻¹

query: Query: self-cleavage kobs at 2500 uM GlcN6P; subject: A52G C58G C61A A64U C67U
result: 9.05e-05 s⁻¹

query: Query: self-cleavage kobs at 2500 uM GlcN6P; subject: G44U G59A G60A
result: < 1e-05 s⁻¹

query: Query: self-cleavage kobs at 2500 uM GlcN6P; subject: U54C C70G
result: 0.000139 s⁻¹
